Target: T1, mouse MAdCAM expressed on cells (mouse, UniProt Q61826 22-405)
T1 construct: whole, on cells
T1 sequence (looked up): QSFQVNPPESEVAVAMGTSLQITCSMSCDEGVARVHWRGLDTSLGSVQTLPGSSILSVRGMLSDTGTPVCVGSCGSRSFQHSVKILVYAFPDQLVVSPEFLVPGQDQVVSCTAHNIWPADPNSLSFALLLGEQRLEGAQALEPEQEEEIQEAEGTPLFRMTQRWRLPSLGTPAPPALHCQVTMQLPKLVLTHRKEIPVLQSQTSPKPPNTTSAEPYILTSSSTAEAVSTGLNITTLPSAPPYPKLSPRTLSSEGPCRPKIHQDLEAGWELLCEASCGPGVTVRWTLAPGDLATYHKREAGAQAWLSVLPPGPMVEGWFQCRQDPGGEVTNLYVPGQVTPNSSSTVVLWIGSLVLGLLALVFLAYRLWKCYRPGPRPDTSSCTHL
Assay: cell binding
quantity-kind: binding result

// solved cases for binding result follow
MAdCAM antibody Clone ID 36 of Table 6 (scFv) (scFv) scFv: QVQLVQSGAEVKKPGASVKVSCKASGYTFTGHYMHWVRQAPGQGLEWMGIINPSGGSTSYAQKFQGRVTMTRDTSTSTVYMELSSLRSEDTAVYYCARDTGYSYGRYYYYGMDVWGQGTTVTVSSGGGGSGGGGSGGGGSGGGGSDIQMTQSPSSLSASVGDRVTITCRASQSIGRWLAWYQQKPGKAPKLLIYDASNLQSGVPSRFSGSGSGTDFTLTISSLQPEDFATYYCQQSYSIPITFGGGTKVEIK :: no binding
MAdCAM antibody Clone ID 47 of Table 6 (scFv) (scFv) scFv: EVQLLESGGGLVQPGGSLRLSCAASGFSFSDYGMHWVRQAPGKGLEWVSAISGSGGSTYYADSVKGRFTISRDNSKNTLYLQMNSLRAEDTAVYYCARDGGWQPAAILDYWGQGTLVTVSSGGGGSGGGGSGGGGSGGGGSDIQMTQSPSSLSASVGDRVTITCRASQGISNNLNWYQQKPGKAPKLLIYDASNLETGVPSRFSGSGSGTDFTLTISSLQPEDFATYYCQQSYSTPLTFGGGTKVEIK :: no binding
MAdCAM antibody Clone ID 2 of Table 6 (scFv) (scFv) scFv: QVQLVQSGAEVKKPGASVKVSCKASGYPFIGYYLHWVRQAPGQGLEWMGIINPSGGSTSYAQKFQGRVTMTRDTSTSTVYMELSSLRSEDTAVYYCAREGRLSYGMDAWGQGTLVTVSSGGGGSGGGGSGGGGSGGGGSDIQMTQSPSSLSASVGDRVTITCRASQSISSYLAWYQQKPGKAPKLLIYGASTLESGVPSRFSGSGSGTDFTLTISSLQPEDFATYYCQQTWGPPFTFGQGTKLEIK :: binds
MAdCAM antibody Clone ID 59 of Table 6 (scFv) (scFv) scFv: EVQLLESGGGLVQPGGSLRLSCAASGFTFSDFWMHWVRQAPGKGLEWISYISGDSGYTNYADSVKGRFTISRDNSKNTLYLQMNSLRAEDTAVYYCARDRPYYYYMDVWGKGTTVTVSSGGGGSGGGGSGGGGSGGGGSDIQMTQSPSSLSASVGDRVTITCRASQSVSRSLAWYQQKPGKAPKLLIYAASSLQSGVPSRFSGSGSGTDFTLTISSLQPEDFATYYCQQYKSYPVTFGQGTKVEIK :: binds

Query :: # query: binding result of entry MAdCAM antibody Clone ID 23 of Table 6 (scFv) (scFv) scFv: EVQLLESGGGLVQPGGSLRLSCAASGFTFSSYAMHWVRQAPGKGLEWVSGISGSGGSAYYADSVKGRFTISRDNSKNTLYLQMNSLRAEDTAVYYCATSQAPVDYYYYGMDVWGQGTTVTVSSGGGGSGGGGSGGGGSGGGGSDIQMTQSPSSLSASVGDRVTITCRASQSISSWLAWYQQKPGKAPKLLIYAASNLQRGVPSRFSGSGSGTDFTLTISSLQPEDFATYYCQQSYSIPITFGQGTKVEIK
Result :: no binding
